- ASSAYED TARGET: human leukocyte elastase (HLE) (Homo sapiens, UniProt P08246)
- Sequence (P08246 30-267): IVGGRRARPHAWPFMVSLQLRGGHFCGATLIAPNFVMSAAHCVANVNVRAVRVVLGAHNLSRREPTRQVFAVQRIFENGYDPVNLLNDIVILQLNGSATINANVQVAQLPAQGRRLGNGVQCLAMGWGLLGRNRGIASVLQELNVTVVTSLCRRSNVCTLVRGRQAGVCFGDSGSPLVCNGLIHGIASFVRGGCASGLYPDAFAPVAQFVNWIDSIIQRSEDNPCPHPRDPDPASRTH
- ASSAY NAME: Kinetic parameters for HLE inhibition (release of 7-amino-4-methylcoumarin from N-methoxysuccinyl-alanylprolyl-valyl-7-amido-4-methylcoumarin, fluorescence detection)
- RECORDED CONDITIONS: steady state; 37° C., 0.027 M pH 7.4 phosphate buffer, 1% DMSO, 1% MeCN, NaCl (I=0.15); read-out: Ki^ss (apparent dissociation constant of the HLE-inhibitor complex at steady state)
pKi: −log10 of the molar value.
RECORDED ENDPOINT: pKi

Example entries begin here.
For "Cn1nnnc1SCC1=C(C(=O)SC(C)(C)C)N2C(=O)[C@H](Cl)[C@H]2S(=O)(=O)C1" on human leukocyte elastase (HLE) (Homo sapiens, UniProt P08246), measured pKi was 8.37

Form: item "COCC1=C(C(=O)SC(C)(C)C)N2C(=O)[C@H](Cl)[C@H]2S(=O)(=O)C1" ; test system human leukocyte elastase (HLE) (Homo sapiens, UniProt P08246); pKi: 7.80

1: CC(=O)OCC1=C(C(=O)SC(C)(C)C)N2C(=O)[C@H](Cl)[C@H]2S(=O)(=O)C1
2: CC(=O)OCC1=C(C(=O)SCc2ccccc2)N2C(=O)[C@H](Cl)[C@H]2S(=O)(=O)C1
**Q:** Identify the item whose pKi is the smaller number: 1 or 2 Please respond with the label that marks your chosen entry.
**A:** 2
